target: HIV-1 Env of isolate THRO.18 (clade B pseudovirus) (HIV-1)
assayRemarks: cell-based or functional assay
Reported IC50 (neutralization, TZM-bl pseudovirus assay) is given for each of the following binders.
observationType: IC50 (neutralization, TZM-bl pseudovirus assay) (µg/mL)

binder="1469_M23 (PG16) (TCN-118) (antibody, V domains shown) VH: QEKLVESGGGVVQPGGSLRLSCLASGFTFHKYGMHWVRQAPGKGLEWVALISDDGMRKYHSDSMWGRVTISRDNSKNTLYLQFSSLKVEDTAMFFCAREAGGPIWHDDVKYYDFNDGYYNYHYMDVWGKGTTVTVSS VL: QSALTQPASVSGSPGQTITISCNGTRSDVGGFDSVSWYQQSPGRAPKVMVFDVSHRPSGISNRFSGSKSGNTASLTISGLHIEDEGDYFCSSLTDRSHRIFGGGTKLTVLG" unitabbreviation=µg/mL readoutnumber=7.01
binder="1503_H05 (PG16) (TCN-119) (antibody, V domains shown) VH: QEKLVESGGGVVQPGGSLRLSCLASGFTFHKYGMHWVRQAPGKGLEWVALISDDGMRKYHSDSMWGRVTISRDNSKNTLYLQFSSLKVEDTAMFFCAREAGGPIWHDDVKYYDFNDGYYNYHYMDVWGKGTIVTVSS VL: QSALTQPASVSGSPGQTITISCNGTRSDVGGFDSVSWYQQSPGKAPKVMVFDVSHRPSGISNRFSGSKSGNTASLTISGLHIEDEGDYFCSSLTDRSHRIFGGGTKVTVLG" unitabbreviation=µg/mL readoutnumber=4.12
binder="1456_A12 (PG16) (TCN-117) (antibody, V domains shown) VH: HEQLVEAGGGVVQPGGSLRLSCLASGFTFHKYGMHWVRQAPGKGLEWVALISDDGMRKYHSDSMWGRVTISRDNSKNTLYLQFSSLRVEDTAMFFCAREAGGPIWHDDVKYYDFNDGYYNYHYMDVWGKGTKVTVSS VL: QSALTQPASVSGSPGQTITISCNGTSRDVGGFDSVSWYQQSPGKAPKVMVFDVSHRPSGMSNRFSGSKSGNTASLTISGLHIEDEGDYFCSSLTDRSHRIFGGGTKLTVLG" unitabbreviation=µg/mL readoutnumber=2.08
binder="1489_I13 (PG16) (TCN-120) (antibody, V domains shown) VH: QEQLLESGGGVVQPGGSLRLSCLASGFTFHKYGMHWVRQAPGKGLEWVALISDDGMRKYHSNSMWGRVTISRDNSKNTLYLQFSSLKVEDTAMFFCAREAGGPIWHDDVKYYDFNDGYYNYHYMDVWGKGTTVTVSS VL: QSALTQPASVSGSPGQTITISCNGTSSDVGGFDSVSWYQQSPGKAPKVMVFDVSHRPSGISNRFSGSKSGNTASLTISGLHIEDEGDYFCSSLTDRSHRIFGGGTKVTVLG" unitabbreviation=µg/mL readoutnumber=7.41
